These data points were gathered from ChEMBL document CHEMBL3763051.

target: Pleckstrin homology domain-containing family A member 1 (Homo sapiens, UniProt Q9HB21); assay: Antagonist activity at human Tapp1-PH domain (180 to 305 residues) assessed as reduction in PI(3,4)P2/Tapp1-PH interaction after 30 mins by competitive SPR analysis
Sequence (Q9HB21 whole entry, the tested form may be a part): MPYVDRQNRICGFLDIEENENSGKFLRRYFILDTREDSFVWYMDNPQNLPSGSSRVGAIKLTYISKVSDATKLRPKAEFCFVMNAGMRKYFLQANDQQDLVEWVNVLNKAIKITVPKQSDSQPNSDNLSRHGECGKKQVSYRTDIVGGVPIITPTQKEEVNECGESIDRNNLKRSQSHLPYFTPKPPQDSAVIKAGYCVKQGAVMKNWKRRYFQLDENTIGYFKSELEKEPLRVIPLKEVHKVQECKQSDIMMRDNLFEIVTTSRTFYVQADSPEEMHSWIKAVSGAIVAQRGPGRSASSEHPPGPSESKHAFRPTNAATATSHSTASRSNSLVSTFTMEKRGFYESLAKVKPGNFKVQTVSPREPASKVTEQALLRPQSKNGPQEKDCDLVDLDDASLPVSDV
Reported endpoint: IC50 (µM)
Numbers only; they are read as µM.

Entry "N=C(N/C(=N/O)c1nonc1N)N1CCCN=C1N" : reported IC50 = ?
5

Same question, "N=C(N)NC(=N)N/C(=N/O)c1nonc1N" this time
28

----------
test: Cytotoxicity against human MDA-MB-231 cells assessed as inhibition of cell proliferation at 100 uM after 48 hrs by MTT assay; assay type: cell-based
Reported endpoint: inhibition at 48 h, 100 µM

Entry "N=C(N)NC(=N)N/C(=N/O)c1nonc1N" : reported inhibition at 48 h, 100 µM = ?
10%
